Values from patent US11179397B2

biological target: UniProtKB Q06124; experiment: SHP-2 biochemical DiFMUP pseudosubstrate-fluorogenic assay; conditions: 0.2 nM SHP-2, 1 μM IRS-1 activator peptide, 50 μM DiFMUP; read-out: SHP2 IC50
Sequence (Q06124 whole entry): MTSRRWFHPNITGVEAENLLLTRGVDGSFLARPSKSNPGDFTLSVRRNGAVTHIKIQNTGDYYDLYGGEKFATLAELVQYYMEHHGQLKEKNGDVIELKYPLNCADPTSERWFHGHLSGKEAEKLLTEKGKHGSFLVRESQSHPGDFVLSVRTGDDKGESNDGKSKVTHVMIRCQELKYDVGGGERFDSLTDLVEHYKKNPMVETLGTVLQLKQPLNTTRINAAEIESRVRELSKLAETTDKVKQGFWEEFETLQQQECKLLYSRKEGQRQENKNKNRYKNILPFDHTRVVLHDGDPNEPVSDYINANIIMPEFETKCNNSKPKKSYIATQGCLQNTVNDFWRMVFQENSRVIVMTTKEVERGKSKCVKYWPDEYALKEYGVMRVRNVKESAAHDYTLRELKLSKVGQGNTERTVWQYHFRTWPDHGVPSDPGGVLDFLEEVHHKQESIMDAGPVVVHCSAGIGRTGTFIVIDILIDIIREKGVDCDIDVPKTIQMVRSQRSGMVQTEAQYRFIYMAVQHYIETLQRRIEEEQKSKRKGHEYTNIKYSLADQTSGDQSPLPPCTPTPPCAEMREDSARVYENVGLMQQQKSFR
Here, each record is paired with measured IC50 data.

Some solved cases for reference:
[[record]]
mol_smiles = "C[C@@H]1OCC2(CCN(c3ncc(Sc4ccc(N)nc4C(F)(F)F)c4nccn34)CC2)[C@@H]1N"
assay_endpoint = "IC50"
measured_result = "17 nM"

[[record]]
mol_smiles = "C[C@@H]1OCC2(CCN(c3ncc(Sc4cccc5ccsc45)c4nccn34)CC2)[C@@H]1N"
assay_endpoint = "IC50"
measured_result = "4.1 nM"

[[record]]
mol_smiles = "N[C@@H]1CCCC12CCN(c1ncc(Sc3cccn4cnnc34)c3nccn13)CC2"
assay_endpoint = "IC50"
measured_result = "150 nM"

[[record]]
mol_smiles = "Nc1nccc(Sc2cnc(N3CCC4(CC3)Cc3ncccc3[C@@H]4N)n3ccnc23)c1Cl"
assay_endpoint = "IC50"
measured_result = "75 nM"

[[record]]
mol_smiles = "CSc1ccccc1Sc1cnc(N2CCC3(CC2)CO[C@@H](C)[C@H]3N)n2ccnc12"
assay_endpoint = "IC50"
measured_result = "5.7 nM"


Incoming: // map C[C@@H]1OCC2(CCN(c3ncc(Sc4cccc5ccccc45)c4nccn34)CC2)[C@@H]1N to recorded IC50 (system: UniProtKB Q06124)
Outgoing: 4.3 nM

Incoming: Give recorded IC50 with UniProtKB Q06124 for the following compound: Cc1nc(N2CCC3(CCC[C@H]3N)CC2)n2ccnc2c1-c1cccc2cc[nH]c12
Outgoing: 86 nM

Incoming: For UniProtKB Q06124, provide IC50 of C[C@@H]1OCC2(CCN(c3ncc(Sc4ccnc5ccc(C#N)cc45)c4nccn34)CC2)[C@@H]1N please.
Outgoing: 30 nM
